Biological target: T1, HLA-DRB5 (DRB5*0101) (human)
T1 chain 1: not shown
T1 chain 2: not shown
Assay: competition ELISA, purified HLA II; tracer biotinylated HA 306-318
Would you mind telling me the reported pIC50 of each entry?
Give bare numbers, as −log10 of the molar value.

Answered examples (2):
> print(dat)
                                     binder  recorded.metric  numeric.readout
1  TRGLLGCIITSLTGRDKNQV (modifications not checked) [9N 1036-1055, P26664 1036-1055]            pIC50             7.28
2  GCIITSLTGRDKNQV (modifications not checked) [9N 1041-1055]            pIC50             7.96

Fill in: pIC50 of DAHFLSQTKQSGENL (modifications not checked) [29N 1569-1583] is ___
4.68

These data points were gathered from patent US20060110401A1.
